meta.source: patent US4591582A

In this section, each of the compounds is paired with its reported TD50 at 0.5 h.
PROCEDURE TEXT: Rotorod neurotoxicity test (failure to remain on rotating rod, 6 rpm, for 1 min)
Format: in vivo, male Carworth Farms No. 1 mice
SETUP CONDITIONS: mouse, in vivo, ip; mice, i.p., 30 mins. after dosing
Numeric only. Scale: mg/kg

# count of solved cases: 3
COP(=O)(OC)c1cccc(N)c1 = 680
CCOP(=O)(OCC)c1cccc(N)c1 = 389
CCOP(=O)(OCC)Oc1ccccc1NC(C)=O [IV, diethyl-2-acetamidophenylphosphate] = 458

Next up:
In: Read the entry CC(C)OP(=O)(OC(C)C)c1cccc(N)c1 and write its reported TD50 at 0.5 h.
Out: 311

* * *

Collected P.I. (protective index, TD50/ED50), MES values appear next to each entry.
System: seizures induced by maximal electroshock (MES)
PROCEDURE TEXT: inhibition of seizures induced by maximal electroshock (MES) in mice, intraperitoneal
Format: in vivo, male Carworth Farms No. 1 mice
SETUP CONDITIONS: mice, i.p.; TD50/ED50
Answer field: number only, no words.

Sample answers from the record:
CC(C)OP(=O)(OC(C)C)c1cccc(N)c1 = 1.17
CCOP(=O)(OCC)c1cccc(N)c1 = 2.22
COP(=O)(OC)c1cccc(N)c1 = 4.08

Here is another molecule to look at.
In: Determine from records and report P.I. (protective index, TD50/ED50), MES for CCOP(=O)(OCC)Oc1ccccc1NC(C)=O [IV, diethyl-2-acetamidophenylphosphate]
Out: 1.31
